Biological target: Pim-2 (Homo sapiens (Human), UniProt Q9P1W9)
Sequence (Q9P1W9 whole entry): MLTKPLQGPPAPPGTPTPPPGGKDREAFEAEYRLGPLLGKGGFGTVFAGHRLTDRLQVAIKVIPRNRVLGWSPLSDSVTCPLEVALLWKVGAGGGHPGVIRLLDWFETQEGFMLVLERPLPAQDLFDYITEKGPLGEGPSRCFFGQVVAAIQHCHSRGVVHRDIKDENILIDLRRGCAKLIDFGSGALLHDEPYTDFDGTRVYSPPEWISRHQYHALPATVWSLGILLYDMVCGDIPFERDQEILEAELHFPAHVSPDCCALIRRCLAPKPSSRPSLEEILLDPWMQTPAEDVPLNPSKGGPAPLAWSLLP
Experiment: Pim-Mn enzyme assay (HTRF, 384-well), Pim-2
Format: biochemical
Settings: Pim-2 enzyme 0.5 pM, ATP 1.5 μM, BAD (S112) 0.5 μM, HTRF, 22-point curve; read-out: Pim-2-Mn IC50 IP
assay metric: IC50 (nM)
One number for each entry, in nM.

Some solved cases for reference:
{"columns": ["compound", "IC50 [nM]"],
 "data": [
  ["Cc1nc2cccc(-c3cc4c([nH]3)[C@@H](C)NC4=O)c2nc1O[C@@H](C)C(F)(F)F [Example 452]", 32.5],
  ["CC(C)(C)Nc1nc2c(-c3cc4c([nH]3)CCNC4=O)cccc2nc1F [Example 343]", 2.78],
  ["Cc1nc2ccc(F)c(-c3cc4c([nH]3)CCNC4=O)c2nc1NC(C)C [Example 373, 2,2,2-trifluoroacetate]", 1.63]
]}

Continue with the next compound.
Prompt: Record lookup: for Pim-2 (Homo sapiens (Human), UniProt Q9P1W9), what IC50 belongs to Cc1nc2cccc(-c3cc4c([nH]3)[C@@H](C)NC4=O)c2nc1N[C@H]1CCC[C@@H](NS(C)(=O)=O)C1 [Example 489] ?
Completion: 2

###

Exercise: for every item that follows, state its recorded pIC50.
Biological target: Pim-2 (Homo sapiens (Human), UniProt Q9P1W9)
Experiment: Pim-Mn enzyme assay (HTRF, 384-well), Pim-2
Format: biochemical
Conditions: Pim-2 enzyme 0.5 pM, ATP 1.5 μM, BAD (S112) 0.5 μM, HTRF, 22-point curve; read-out: Pim-2-Mn IC50 IP
Numbers only, as −log10 of the molar value.

Previously resolved entries follow.
{"columns": ["compound", "pIC50"],
 "data": [
  ["Cc1nc2cccc(-c3c[nH]c(C(N)=O)c3)c2nc1NC(C)(C)C", 7.46],
  ["Cc1nc2cccc(-c3cc4c([nH]3)C(C)CNC4=O)c2nc1NC1CC1 (single isomer, unassigned) [Example 161]", 9.15],
  ["Cc1nc2cccc(-c3cc4c([nH]3)CCNC4=O)c2nc1N1CCC1", 7.71],
  ["C[C@H]1NC(=O)c2cc(-c3cccc4c(=O)n(CCCS(C)(=O)=O)c(NC(C)(C)C)nc34)[nH]c21", 9.52],
  ["Cc1nc2cccc(-c3cc4c(=O)[nH]cnc4[nH]3)c2nc1NC1CCC1", 8.91],
  ["C[C@@H](O)c1nc2cccc(-c3cc4c([nH]3)CCNC4=O)c2nc1NC(C)(C)C", 8.71],
  ["Cc1nc2cccc(-c3cc4n(c3)CCNC4=O)c2nc1NC(C)(C)C", 8.46],
  ["CCC(C)(C)Nc1nc2c(-c3cc4c([nH]3)CCNC4=O)c(F)ccc2nc1C", 9.56]
]}

Okay, here is my list. What is pIC50 for each of these?
1. Cc1nc2cccc(-c3cc4c([nH]3)[C@@H](C)NC4=O)c2nc1N[C@H]1CCC[C@@H](NC(=O)[C@@H](CO)NC(=O)OC(C)(C)C)C1
2. Cc1nc2ccnc(-c3cc4c([nH]3)CCNC4=O)c2nc1NC(C)(C)C
3. Cc1nc2cccc(-c3cc4c([nH]3)[C@H](CO)NC4=O)c2nc1NC1(C)CC1

Completion:
8.00
7.47
8.74

Required: pIC50, one value per compound below.
1. Cc1nc2ccc(F)c(-c3cc4c([nH]3)CCNC4=O)c2nc1NC(C)(C)C
2. C#Cc1nc2cccc(-c3cc4c([nH]3)CCNC4=O)c2nc1NC(C)(C)C
3. Cc1nc2ccc(F)c(-c3cc4c([nH]3)CCNC4=O)c2nc1NC1(C)CC1 [Example 369, 2,2,2-trifluoroacetate]

Completion:
[9.52, 8.84, 9.79]
